assay: Solubility of drug substances in liquid carbon dioxide and dimethyl ether (HPLC or gravimetric); type: physicochemical; conditions: organic solvent or mixture; dimethyl ether, 45° C./200 bar; read-out: solubility (DME)
MEASURED_QUANTITY: solubility (mg/mL)
Give just the numeric value; mg/mL need not be written.

COc1ccccc1Oc1c(NS(=O)(=O)c2ccc(C(C)(C)C)cc2)nc(-c2ncccn2)nc1OCCO : 90
O=C(NCCN1CCOCC1)c1ccc(Cl)cc1 [Moclobemide] : 37

Shift focus to the following entry.
// solubility lookup, key: CC1=C(/C=C/C(C)=C/C=C/C(C)=C\C(=O)O)C(C)(C)CCC1
60

---

test: Solubility of drug substances in liquid carbon dioxide and dimethyl ether (HPLC or gravimetric); type: physicochemical; settings: organic solvent or mixture; liquid CO2, 30° C./100 bar; read-out: solubility (CO2)
MEASURED_QUANTITY: solubility (µg/mL)
Write it as a number; the unit µg/mL goes unstated.

Tell me the measured solubility of CCCCCCCCCCC[C@@H](C[C@@H]1OC(=O)[C@H]1CCCCCC)OC(=O)[C@H](CC(C)C)NC=O [Orlistat, Tetrahydrolipstatin] , please.
6000

Provenance of the data: patent US6299906A
